- ASSAY_SUMMARY: yeast display, Sf9 membrane polyspecificity reagent, FACS + sequencing; frameworks hold sequencing errors

# RESIDUE_STRING, polyreactivity (PSR sort gate)
measured = [
    ("QVQLVESGGGLVQAGGSLRLSCAASGIIFTYYAMGWDRQAPGKERELVARISSSGGRTYYADSVKGRFTISRDNAKNTVYLQMNSLKPEDTAVYYCAAAIVSYGRNDYWGQGTQVTVSS", "high polyreactivity"),
    ("QVQLEESGGGLVQAGGSLRLSCAASGSTFRRYTMGWYRQAPGKERELVAAITRGGSTYYADSVKGRFTISRDNAKNTVYLQMNSLKPEDTAVYYCAVKYFTAFRLRGDYWGQGTQVTVSS", "high polyreactivity"),
    ("QVQLVESGGGLVQAGGSLRLSCAASVSTFPQYAMGWYRQAPGKERELVAAISWSGGRTYYADSVKGRFTISRDNAKNTVYLQMNSLKPEDTAVFYCAATYPGQYGYNYWGQGTQVTVSS", "high polyreactivity"),
    ("QVQLVESGGGLVQAGGSLRLSCAASGRTLRGYAMGWYRQAPGKERELVAAISKGGGSTFYADSVKGRFTISRDNAKNTVYLQMNSLKPEDTAVYYCAADYYSYTYYLDFDYWGQGTQVTVSS", "high polyreactivity"),
    ("QVQIEESGGGLVQAGGSLRLSCAASGFTFRWYAMGWSIQAPGKERELVAAIDWSGGSTNYADSVKGRFTISRDNAKNTVYLQMNSLKPEDTAVYYCAAVWRYWYPGFVPYDYWGQGTQVTVSS", "high polyreactivity"),
    ("QVQLEESGGGLVQAGGSLRLSCAASGRTFGTNAMGWYRQAPGKERELVAAITTNGGRTYYADSVKGRFTISRDNAKNTVYLQMNSLKPEDTAVYYCAKYYQTDTYIYDYWGQGTQVTVSS", "low polyreactivity"),
    ("QVQLVESGGGLVQAGGSLRLSCAASGLIFKFYAMGWYRQAPGKERELVARISSCGGSTYYADSVKGRFTMSRDNAKNTVYLQMNSLKPEDTAVYYCAAGDYYGDRYARSSIFSYYYWGQGTQVTVSS", "high polyreactivity"),
    ("QFQLVESGGGLVQAGGSLRLSCAASGSTFWVYAMGWYRQAPGKERDLVAAITFRTTSTYYADSVKGRFTISRDTAKNSVSLQLKSLIPDDNAVYFCAATEYYATEYDYWGQCTQVTVSS", "low polyreactivity"),
    ("QVPLVESGGGLVQAGGSLRLSCAASGSIFTVYAVGWYRQAPGKERELVASIRFSSGRTYYADSVKGRFTISRDNAKNTVYLHMTSLKPEDTAVYYCAAETVSWYRYYYWGQGTQVTVSS", "high polyreactivity"),
    ("QVQLVESGGGLVQAGGSLRLSCAASGSTFYLNAKGWYRQAPGKERELVAASSSSGGSTYYADSVKGRFTISRDNAKNTVYLQMNSLKPEDTAVYYCACSCVPAVSVYGGDYWGQGTQVTVSS", "low polyreactivity"),
    ("QVQLVESGGGLVQAGGSLRLSCAASGRTFPYYAMGWSRQAPGKERQLVAAISSSGGLTYYADSVKGRFTISRDNAKNTVYLQMNSLKPEDTAVYYFNVDAWYPYQGFLVGYYYWGQGTQVTVSS", "low polyreactivity"),
    ("QDQLVESGGGVVQAGGSLRLSCAASGRIVGSKASGVSIEAPRKESEFVAAISSCSRTYYADSVKGLFSISRDNAKNTVYLQMNSLKPEDTAVYYCAKRGYFYSHRHGYEYGGQGTQVTVSS", "high polyreactivity"),
    ("QVQLVESGGGLVQAGGSLRLICAASGSTFYWYMGWYRQAPGKERELVAAITSGGRTYYADSVKGRFTISRDNAKNTVYLQMNSLKPEDTAVYYCATTRRYAYRGGHNYWGQGTQVTVSS", "high polyreactivity"),
    ("QVQLVESGGGLVQAGGSLRLSCAASGRTFTRYAMGRYRQAPGKERELVASISGSGGRTNYADSVKGRFTISRDNAKNTVYLQMNSLKPEDTAVYYCAARYRTWFGYWGQGTQVTVSS", "high polyreactivity"),
    ("QVQLVESGGGLVQAGGSLRLSCAASGITFWYYTMGWYRQAPGKERELVARITSGSRTSYADSVKGRFTISRDNAKNTVYLQMNSLKPEDTAVYYCAAGSYADRLWSKYNYWGQGTQVTVSS", "high polyreactivity"),
    ("QVQLVESGGGLVQAGGSLRLSCAASGRTFYVYAMGWYRQAPGKERELVAAISKSGGSTYYADSVKGRFTISRDNAKNTVYLQMNSLKPEDTAVYYCAARKSDPRTKLYNYWGQGTQVTVSS", "high polyreactivity"),
    ("QVQLVESGGGLVQAGGSLRLSCAASGRIFYSYAMGGYRQAPGKERELVAAISSAGSTYYADSVKGSFTISRDNAKNTVYLQMNSLKPEDTAVYYSAKGIWPYHGYRLQRVYDSWGQGTQVTVSS", "high polyreactivity"),
    ("QVQLLETGGGLVQAGRSHRLSCAASGLTFEDYAMGWYRQAPGKESELVAAITYSGGSTYYADSVKGRFTISRDNAKNSVYLQMMSLKPEDTAVSVCAAVSTLRPSWKRYYYWGQGNQVTVSS", "high polyreactivity"),
    ("QVQLVESGGGLVQAGGSLRLSCAASGSTMLDYAMGWYRQAPGKERELVAAISWSGGSTRYADSVKGRFTISRDNAKNTVFLQMNSLKPEDTAVYYCAATGFSYRYFQTRDYWGQGTQVTVSS", "high polyreactivity"),
    ("QVQLVESGGGLVQAGGSLRLRCASSGYIFTYYAMGWYRQAPGKERELVAAISWSGGRTYYADSVKGRFTISRDNAKITVYLQMNSLKPEDTAVYYCNAVDKRYPDMDYWGQGTQVTVSS", "high polyreactivity"),
    ("QVQLVESGGGLVQAGGSLRLSCAASGITFGVYGMGWYRQAPGKERELVAAISRTGGSTYYADSVKGRFTISRDNAKNTVYLQMNSLKPEDTAVYYCAADRYRRVAKHGYWGQGTQVTVSS", "high polyreactivity"),
]
